Reported percentage of signal values follow for various binders
target: T1, recombinant human pro-sPLA2-GIB (pro form of group IB pancreatic phospholipase A2) (human, UniProt P04054 16-148); assay: competition ELISA on coated pro-sPLA2-IB; competitor biotinylated 8G11
T1 construct: also called pro-sPLA2-IB; proPLA2-GIB
T1 sequence (P04054 16-148): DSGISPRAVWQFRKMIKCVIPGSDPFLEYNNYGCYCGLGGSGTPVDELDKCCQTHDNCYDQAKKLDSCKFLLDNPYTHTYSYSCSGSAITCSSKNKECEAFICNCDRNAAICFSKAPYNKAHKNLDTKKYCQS
Numeric answer only, unit % assumed.

Record excerpt, results attached:
Input: Return reported percentage of signal; argument: #7A10 (antibody, IgG1, V domains shown, also called monoclonal antibody 7A10; #7A10 mAb) VH: QVQLKESGPGLVAPSQSLSITCTVSGFSLTSYGVSWVRQPPGKGLEWLGVIWGDGSTNYHSALISRLSISKDNSKSQVFLKLNSLQTDDTATYYCAKEGGLRRGVYFDYWGQGTTLTVSS VL: DIQMNQSPSSLSASLGDTITITCRASQGISIWLDWYQQKPGNIPKLLIYKASNLHTGVPPRFSGSGSGTDFTLTISSLQPEDIATYYCLQSQSYPLTFGAGTKLELKR
Output: 93

Input: For #14G9 (antibody, IgG1, V domains shown, also called monoclonal antibody 14G9; #14G9 mAb) VH: QVQLQQPGAELVKPGASVKLSCKASGYTFTNYWIHWVKRRPGQGLEWIGNIDPSDTRTHYNQKFKDKATLAVDKSSSTAYMQLSSLTSEDSAVFYCARQTLYYEALDYWGQGTTLTVSS VL: DIVMTQSHKLMSTSVGDRVSITCKASQDVSTAVAWYQEKPGQSPKLLIYWASTRHTGVPNRFTGSRSGTDYTLTISSVQAEDLALYYCQQDYSTPPTFGAGTKLELKR , what is its reported percentage of signal?
Output: 73

Input: // lookup percentage of signal for #24B2 (antibody, IgG2a, V domains shown) VH: DVQVQESGPGLVKPSQTVSLNCTVTGHSITDDNYYWSWIRLVSGSKLEWIGYITSSGSTDINPSLKSRISITRDISKNQFFLHLNSVTAEDTATYYCARDSTDGDFYFEKWGQGTTLTVSS VL: DIVLTQSPASLAVSLGQRATISCRASESVDNYGISFMHWYQQKPGQPPKLLIYRASNLESGIPARFSGSGSRTDFTLTINPVETDDVATYYCQQSSRDLFTFGGGTKLEIKR
Output: 64

Input: I would be grateful if you could share the reported percentage of signal for #22C6 (antibody, IgG2a, V domains shown) VH: EVQLQESGPGLVKPSQTVSLNCTVTGHSITDDNYYWSWIRLVSGSKLEWIGYITSAGNTDNNPSLKSRISITRDISKNQFFLHLSSVTAEDTATYYCARDSTDGDFYFEKWGQGTTLTVSS VL: EIVLTQSPTTMAASPGEKITITCSVSSSISPNFLHWYQQKPGFSPKLLIFRTSNLASGVPTRFSGSGSGTSYSLTIGTMEAEDVATYYCHQGNSLPLTFGAGTKLELKR .
Output: 39

Consider the additional binder presented here.
Input: Suppose we examine the binder #1C11 (antibody, IgG1, V domains shown, also called monoclonal antibody 1C11; #1C11 mAb) VH: EVKLQESGPELVKPGASVKISCKVSGYAFSSFWMNWVKQRPGKGLEWIGRIYPGDGDINYNGKFKGKATLTADKSSSTAYMQLSSLTSEDSAVYFCVRGWAWFPYWGQGTLVTVSA VL: EIVLTQSPAITSASLGQRVTISCSATSSVSYVHWYQQKSGTSPKPWIYEISRLASGVPARFSGSGSGTSYSLTISTMEAEDAAIYYCQSWNFPLLSFGAGTKLELKR ; what percentage of signal value has been reported?
Output: 496
